target: UniProt:Q8ZKQ6; assay: biochemical; assay type: biochemical, S. typhimurium; conditions: 50 µM
Consider the following molecules; for each one, report its Inhibition (%).
Answers are plain numbers.

Take a look at these entries with their results.
COc1ccc(-c2coc3cc(O)cc(O)c3c2=O)cc1 :: 25
Cl.NCCS [CYSTEAMINE HYDROCHLORIDE] :: 19

Hi team, please reply with Inhibition (%) for each item in this list.
1. CC(=O)O[C@H]1CC[C@]2(C)[C@H]3CC[C@@]4(C)[C@H](c5ccoc5)OC(=O)[C@H]5O[C@]54[C@]3(C)[C@H](OC(C)=O)C[C@H]2C1(C)C [3beta-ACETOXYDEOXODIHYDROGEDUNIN]
2. O=c1cc(-c2ccccc2)oc2c(O)c(O)ccc12 [7.8-DIHYDROXYFLAVONE]
3. O=C(CNC(=O)c1ccc(Cl)cc1)NO

(A)
2
5
3

---

biological target: LsrK (Salmonella typhimurium, UniProt Q8ZKQ6); experiment: biochemical; type: biochemical, S. typhimurium
Sequence (Q8ZKQ6 whole entry): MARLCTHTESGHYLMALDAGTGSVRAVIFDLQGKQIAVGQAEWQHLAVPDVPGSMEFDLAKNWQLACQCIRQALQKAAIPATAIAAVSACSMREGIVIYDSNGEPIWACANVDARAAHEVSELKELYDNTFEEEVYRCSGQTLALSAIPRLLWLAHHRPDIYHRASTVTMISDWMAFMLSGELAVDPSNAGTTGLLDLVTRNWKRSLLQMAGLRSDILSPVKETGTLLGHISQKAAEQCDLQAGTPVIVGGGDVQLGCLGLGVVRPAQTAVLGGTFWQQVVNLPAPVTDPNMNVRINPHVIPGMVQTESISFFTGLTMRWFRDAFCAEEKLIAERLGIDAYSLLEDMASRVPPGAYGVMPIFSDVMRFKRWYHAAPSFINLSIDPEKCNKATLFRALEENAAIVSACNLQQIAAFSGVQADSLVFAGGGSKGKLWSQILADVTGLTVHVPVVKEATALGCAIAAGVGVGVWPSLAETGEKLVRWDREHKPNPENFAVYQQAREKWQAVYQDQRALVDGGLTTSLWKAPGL
Consider the following compounds; for each one, report its inhibition at 50 µM.
Answers are plain numbers, in %.

Take a look at these entries with their results.
O=C(O)c1ccccc1C(=O)Nc1ccc(S(=O)(=O)Nc2nccs2)cc1 :: 1
CCOc1ccc2nc3cc(N)ccc3c(N)c2c1 [ETHACRIDINE LACTATE] :: 1
C[N+](C)(C)CCCCCCCCCC[N+](C)(C)C [DECAMETHONIUM BROMIDE] :: 0
COc1cc(Cc2cnc(N)nc2N)cc(OC)c1OC :: 0

Hi team, please reply with inhibition at 50 µM for each item in this list.
1. CCCc1nc(C(C)(C)O)c(C(=O)OCc2oc(=O)oc2C)n1Cc1ccc(-c2ccccc2-c2nnn[nH]2)cc1
2. C[C@@H]1CC[C@H]2C(C)(C)[C@H]3C[C@@]12CC[C@@]3(C)O
3. COC(=O)c1c(C)cc(OC(=O)c2c(C)cc(O)c(C=O)c2O)c(C)c1O

(A)
0
13
0

---

biological target: LsrK (Salmonella typhimurium, UniProt Q8ZKQ6); assay: biochemical; assay type: biochemical, S. typhimurium; settings: 50 µM
Structures can show the parent of a compound that is named as a salt.
Returns one of true or false; true when Inhibition (%) is >= 4.

CC(C)CC(N(C)C)C1(c2ccc(Cl)cc2)CCC1.Cl (stereo not drawn) [SIBUTRAMINE HYDROCHLORIDE] :: false
C[C@H]1O[C@H](OC2[C@@H](O)[C@@H](O)C(O)[C@H](O)[C@H]2O)[C@@H](N)C[C@@H]1N=C(N)C(=O)O.Cl (stereo partly drawn) [KASUGAMYCIN HYDROCHLORIDE] :: false
COC(=O)NC(=S)Nc1ccccc1NC(=S)NC(=O)OC :: false
C[C@]12C=CC(=O)C=C1CC[C@@H]1[C@@H]2[C@@H](O)C[C@@]2(C)[C@H]1CC[C@]2(O)C(=O)COP(=O)([O-])[O-].[Na+].[Na+] [PREDNISOLONE SODIUM PHOSPHATE] :: false
CC(C)(C)NCC(O)c1cc(O)cc(O)c1.CC(C)(C)NCC(O)c1cc(O)cc(O)c1.O=S(=O)(O)O (stereo not drawn) [TERBUTALINE HEMISULFATE] :: false
C=CC(C1=CC(=O)C(OC)=CC1=O)c1ccc(O)cc1 (stereo not drawn) [DALBERGIONE. 4-METHOXY-4'-HYDROXY-] :: true

(Q) Is the recorded value of Inhibition (%) equal to or greater than 4 for this molecule? CN1CCCN=C1/C=C/c1cccc(O)c1.O=C(O)c1cc2ccccc2c(Cc2c(O)c(C(=O)O)cc3ccccc23)c1O [OXANTEL PAMOATE]
(A) true

(Q) Is the recorded value of Inhibition (%) equal to or greater than 4 for this molecule? N.N.[Cl][Pt][Cl] [CISPLATIN]
(A) false

(Q) Is the recorded value of Inhibition (%) equal to or greater than 4 for this molecule? NC(=O)CC[C@H](N)C(=O)O
(A) false

(Q) Is the recorded value of Inhibition (%) equal to or greater than 4 for this molecule? CN(C)CCOc1ccc(/C(=C(/CCCl)c2ccccc2)c2ccccc2)cc1 [TOREMIPHENE CITRATE]
(A) true

(Q) Is the recorded value of Inhibition (%) equal to or greater than 4 for this molecule? C=CCCCCCCCCC(=O)[O-].C=CCCCCCCCCC(=O)[O-].[Zn+2] [ZINC UNDECYLENATE]
(A) true

---

biological target: LsrK (Salmonella typhimurium, UniProt Q8ZKQ6); assay: biochemical; type: biochemical, S. typhimurium; details: 50 µM
Consider the following compounds; for each one, report its Inhibition (%).
One number for each entry.

Take a look at these entries with their results.
O=C1CCO1 :: 0
CC(=O)O[C@H]1CC[C@]2(C)C3=C(CC[C@H]2C1(C)C)[C@]1(C)CC[C@H]([C@H](C)CCC=C(C)C)[C@@]1(C)CC3 [LANOSTEROL ACETATE] :: 1
COc1ccc(C(=O)O)c(O)c1OC [2-HYDROXY-3.4-DIMETHOXYBENZOIC ACID] :: 1
CC1=C(/C=C/C(C)=C/C=C/C(C)=C\C(=O)O)C(C)(C)CCC1 :: 1

Hi team, please reply with Inhibition (%) for each item in this list.
1. CC1(C)CC2C1CCC1(C)OC2(C)CCC1O (centres unmarked)
2. Cl.Cl.O=C1c2c(O)ccc(O)c2C(=O)c2c(NCCNCCO)ccc(NCCNCCO)c21 [MITOXANTHRONE HYDROCHLORIDE]
3. CCCCS(=N)(=O)CCC(N)C(=O)O (centres unmarked)

(A)
1. 2
2. 2
3. 20
